Listing of recorded Mutant vs. 4E4.2 Parent B/D Ratio by entry.
Molecular target: T1, human CGRP receptor extracellular domain (ECD) (human, UniProt Q16602 23-138; O60894 27-117)
T1 construct: also called CGRP receptor ECD; human CGRP receptor ECD
T1 sequence (Q16602 23-138 limits assumed, chain 1 of 2): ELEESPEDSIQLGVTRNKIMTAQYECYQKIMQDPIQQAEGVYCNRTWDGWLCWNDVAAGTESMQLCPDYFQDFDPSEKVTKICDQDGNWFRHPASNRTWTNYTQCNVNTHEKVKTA
T1 sequence (O60894 27-117 limits assumed, chain 2 of 2): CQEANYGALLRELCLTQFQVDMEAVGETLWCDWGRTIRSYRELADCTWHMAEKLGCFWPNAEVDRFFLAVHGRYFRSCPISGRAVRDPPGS
Assay: yeast-displayed Fab, FACS, 10 nM human CGRP receptor ECD
Just the number in fold, nothing appended.

// worked examples, Mutant vs. 4E4.2 Parent B/D Ratio included
| Binder | Units label | Mutant vs. 4E4.2 Parent B/D Ratio |
| --- | --- | --- |
| anti-CGRP receptor variant 07, yeast-displayed Fab (Fab, V domains shown, also called Variant Ab ID 07) VH: QVQLVESGGGVVQPGRSLRLSCAASGFYFMTYGMHWVRQAPGKGLEWVAVISFDGSIKYSVDSVKGRFTISRDNSKNTLFLQMNSLRAEDTAVYYCARDRLNYYESSGYYHYKYYGMAVWGQGTTVTVSS VL: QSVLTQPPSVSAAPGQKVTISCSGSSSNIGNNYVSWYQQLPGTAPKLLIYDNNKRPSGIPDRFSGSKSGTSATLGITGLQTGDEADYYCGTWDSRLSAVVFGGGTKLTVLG | fold | 5.3 |
| anti-CGRP receptor variant 06, yeast-displayed Fab (Fab, V domains shown, also called Variant Ab ID 06) VH: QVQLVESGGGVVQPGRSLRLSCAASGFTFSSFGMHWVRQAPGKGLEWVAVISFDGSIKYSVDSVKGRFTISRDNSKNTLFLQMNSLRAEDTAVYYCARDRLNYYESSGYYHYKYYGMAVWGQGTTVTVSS VL: QSVLTQPPSVSAAPGQKVTISCSGSYSNIGRKSVSWYQQLPGTAPKLLIYDNNKRPSGIPDRFSGSKSGTSATLGITGLQTGDEADYYCGTWDSRLSAVVFGGGTKLTVLG | fold | 7.4 |
| anti-CGRP receptor variant 12, yeast-displayed Fab (Fab, V domains shown, also called Variant Ab ID 12) VH: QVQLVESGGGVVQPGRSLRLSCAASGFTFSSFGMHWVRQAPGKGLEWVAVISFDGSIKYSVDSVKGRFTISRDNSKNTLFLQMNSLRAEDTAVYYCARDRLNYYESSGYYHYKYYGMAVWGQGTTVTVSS VL: QSVLTQPPSVSAAPGQKVTISCSGSRSNIGRYSVSWYQQLPGTAPKLLIYDNRYRAQGIPDRFSGSKSGTSATLGITGLQTGDEADYYCGTWDWATTSVVFGGGTKLTVLG | fold | 9.7 |
| anti-CGRP receptor variant 10, yeast-displayed Fab (Fab, V domains shown, also called Variant Ab ID 10) VH: QVQLVESGGGVVQPGRSLRLSCAASGFFFGSYGMHWVRQAPGKGLEWVAVISFAGEIEHYVDSVKGRFTISRDNSKNTLFLQMNSLRAEDTAVYYCARDRLNYYESSGYYHYKYYGMAVWGQGTTVTVSS VL: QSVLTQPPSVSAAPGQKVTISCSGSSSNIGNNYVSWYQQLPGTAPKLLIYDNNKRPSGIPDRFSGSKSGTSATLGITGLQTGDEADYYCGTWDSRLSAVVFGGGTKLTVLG | fold | 13.3 |
| anti-CGRP receptor variant 13, yeast-displayed Fab (Fab, V domains shown, also called Variant Ab ID 13) VH: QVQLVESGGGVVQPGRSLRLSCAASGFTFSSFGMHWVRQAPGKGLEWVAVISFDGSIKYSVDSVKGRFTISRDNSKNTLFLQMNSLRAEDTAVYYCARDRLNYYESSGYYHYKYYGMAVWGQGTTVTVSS VL: QSVLTQPPSVSAAPGQKVTISCSGSRSNIGRRTVSWYQQLPGTAPKLLIYDNNKRPSGIPDRFSGSKSGTSATLGITGLQTGDEADYYCGTWDSRLSAVVFGGGTKLTVLG | fold | 9.8 |
| anti-CGRP receptor variant 09, yeast-displayed Fab (Fab, V domains shown, also called Variant Ab ID 09) VH: QVQLVESGGGVVQPGRSLRLSCAASGFTFSSFGMHWVRQAPGKGLEWVAVISFAGEIDYYVDSVKGRFTISRDNSKNTLFLQMNSLRAEDTAVYYCARDRLNYYESSGYYHYKYYGMAVWGQGTTVTVSS VL: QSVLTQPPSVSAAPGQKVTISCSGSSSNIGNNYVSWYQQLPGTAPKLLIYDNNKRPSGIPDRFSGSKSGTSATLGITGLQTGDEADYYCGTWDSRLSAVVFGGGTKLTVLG | fold | 10.6 |

// query Which Mutant vs. 4E4.2 Parent B/D Ratio is listed for anti-CGRP receptor variant 11, yeast-displayed Fab (Fab, V domains shown, also called Variant Ab ID 11) VH: QVQLVESGGGVVQPGRSLRLSCAASGFWFDTFGMHWVRQAPGKGLEWVAVISFAGEDTHYVDSVKGRFTISRDNSKNTLFLQMNSLRAEDTAVYYCARDRLNYYESYGYYGYHYYGMAVWGQGTTVTVSS VL: QSVLTQPPSVSAAPGQKVTISCSGSRSNIGRYSVSWYQQLPGTAPKLLIYENMFRPRGIPDRFSGSKSGTSATLGITGLQTGDEADYYCGTWDYRMQAVVFGGGTKLTVLG ?
// result 22

// query Subsequent entry: anti-CGRP receptor variant 08, yeast-displayed Fab (Fab, V domains shown, also called Variant Ab ID 08) VH: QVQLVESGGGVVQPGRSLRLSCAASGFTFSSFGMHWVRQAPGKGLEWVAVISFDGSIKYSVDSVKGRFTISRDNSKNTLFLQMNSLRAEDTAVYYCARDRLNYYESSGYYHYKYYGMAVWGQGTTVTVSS VL: QSVLTQPPSVSAAPGQKVTISCSGSYSNIGWWPVSWYQQLPGTAPKLLIYDNNKRPSGIPDRFSGSKSGTSATLGITGLQTGDEADYYCGTWDSRLSAVVFGGGTKLTVLG
// result 3.1

// query What do you get for anti-CGRP receptor variant 05, yeast-displayed Fab (Fab, V domains shown, also called Variant Ab ID 05) VH: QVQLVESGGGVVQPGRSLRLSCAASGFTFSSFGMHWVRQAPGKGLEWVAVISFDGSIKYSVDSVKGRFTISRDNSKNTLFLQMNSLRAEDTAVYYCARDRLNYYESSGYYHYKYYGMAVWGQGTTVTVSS VL: QSVLTQPPSVSAAPGQKVTISCSGSFSNIGRSTVSWYQQLPGTAPKLLIYDNRWRAGGIPDRFSGSKSGTSATLGITGLQTGDEADYYCGTWDYQWKAVVFGGGTKLTVLG ?
// result 24.6

// query Same question for anti-CGRP receptor variant 01, yeast-displayed Fab (Fab, V domains shown, also called Variant Ab ID 01) VH: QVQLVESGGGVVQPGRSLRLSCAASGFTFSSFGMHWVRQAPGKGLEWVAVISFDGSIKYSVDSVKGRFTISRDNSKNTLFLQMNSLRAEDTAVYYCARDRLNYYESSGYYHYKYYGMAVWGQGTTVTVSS VL: QSVLTQPPSVSAAPGQKVTISCSGSYSNIGRYSVSWYQQLPGTAPKLLIYDNNKRPSGIPDRFSGSKSGTSATLGITGLQTGDEADYYCGTWDSRLSAVVFGGGTKLTVLG please.
// result 5.8

// query Note, next up: anti-CGRP receptor variant 04, yeast-displayed Fab (Fab, V domains shown, also called Variant Ab ID 04) VH: QVQLVESGGGVVQPGRSLRLSCAASGFTFSSFGMHWVRQAPGKGLEWVAVISFDGSIKYSVDSVKGRFTISRDNSKNTLFLQMNSLRAEDTAVYYCARDRLNYYRSFGYYGYHYYGMAVWGQGTTVTVSS VL: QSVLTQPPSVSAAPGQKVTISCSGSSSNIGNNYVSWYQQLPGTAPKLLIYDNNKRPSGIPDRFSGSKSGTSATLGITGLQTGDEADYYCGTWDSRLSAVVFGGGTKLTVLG
// result 3.4
